Provide the recorded pKd for the entries that follow.
Target: T1, BMP-7 prodomain, full-length PD (residues 30-292), E. coli (UniProt P18075 30-292)
T1 construct: also called full-length BMP-7 PD; source: E. coli, purified by chelating chromatography; not shown: His6, C-terminal, kept
Experiment: SPR; PD/PD interaction: 500-800 RU of full-length PD (30-292) or truncated variants (48-292, 55-292) immobilised, 0-320 nM PD variants injected in HBS-EP with 1 M urea; apparent KD
Conditions: both partners purified
Numbers only, as −log10 of the molar value.

BMP-7 PD variant 241-292 (domain or fragment, UniProt P18075 241-292, looked up, source: E. coli, purified by chelating chromatography) HNLGLQLSVETLDGQSINPKLAGLIGRHGPQNKQPFMVAFFKATEVHFRSIR :: 7.41

Then this binder:
Data request: Write down pKd measured for item BMP-7 PD variant 218-292 (domain or fragment, UniProt P18075 218-292, looked up, also called Ala218-Arg292; source: E. coli, purified by chelating chromatography) ASEEGWLVFDITATSNHWVVNPRHNLGLQLSVETLDGQSINPKLAGLIGRHGPQNKQPFMVAFFKATEVHFRSIR
Data returned: 7.57
